Test system: Citrobactor freundii GN 346
Assay: Antibacterial activity against clinically isolated β-lactamase (cephalosporinase) producing strains (MIC)
Type: cell-based
Details: cephalosporinase producing strain, SDA, 18 to 20 hours
Description: The antibacterial activities against clinically isolated β-lactamase producing strains were tested by the agar plate dilution method in accordance with the standard method of The Japanese Chemotherapy Society [Chemotherapy, Vol. 29, 76-79 (1981)]. […] The minimum inhibitory concentration was determined as a minimum concentration in which the test microorganism no longer grew after a 18 to 20-hour incubation.
# MIC per record follows

C[C@@H](O)[C@H]1C(=O)N2C(C(=O)[O-])=C(SCc3cs[n+](C)n3)[C@H](C)[C@H]12 [Crystalline Compd. (20)]	0.78 µg/mL

Entry C[C@@H](O)[C@H]1C(=O)N2C(C(=O)[O-])=C(SCc3cs[n+](C)n3)[C@H](C)[C@H]12 [Amorphous Compd. (14)] — recorded MIC = 0.78 µg/mL

Entry `Cc1nnc(SCC2=C(C(=O)O)N3C(=O)[C@@H](NC(=O)Cn4cnnn4)[C@H]3SC2)s1` — recorded MIC = 25 µg/mL

Entry `C[C@@H](O)[C@H]1C(=O)N2C(C(=O)O)=C(SCCN=CN)C[C@H]12` — recorded MIC = 0.39 µg/mL
